Target: T1, EsCas13d, nuclease-dead (Eubacterium siraeum, UniProt B0MS50, R295A;H300A;R849A;H854A)
T1 sequence: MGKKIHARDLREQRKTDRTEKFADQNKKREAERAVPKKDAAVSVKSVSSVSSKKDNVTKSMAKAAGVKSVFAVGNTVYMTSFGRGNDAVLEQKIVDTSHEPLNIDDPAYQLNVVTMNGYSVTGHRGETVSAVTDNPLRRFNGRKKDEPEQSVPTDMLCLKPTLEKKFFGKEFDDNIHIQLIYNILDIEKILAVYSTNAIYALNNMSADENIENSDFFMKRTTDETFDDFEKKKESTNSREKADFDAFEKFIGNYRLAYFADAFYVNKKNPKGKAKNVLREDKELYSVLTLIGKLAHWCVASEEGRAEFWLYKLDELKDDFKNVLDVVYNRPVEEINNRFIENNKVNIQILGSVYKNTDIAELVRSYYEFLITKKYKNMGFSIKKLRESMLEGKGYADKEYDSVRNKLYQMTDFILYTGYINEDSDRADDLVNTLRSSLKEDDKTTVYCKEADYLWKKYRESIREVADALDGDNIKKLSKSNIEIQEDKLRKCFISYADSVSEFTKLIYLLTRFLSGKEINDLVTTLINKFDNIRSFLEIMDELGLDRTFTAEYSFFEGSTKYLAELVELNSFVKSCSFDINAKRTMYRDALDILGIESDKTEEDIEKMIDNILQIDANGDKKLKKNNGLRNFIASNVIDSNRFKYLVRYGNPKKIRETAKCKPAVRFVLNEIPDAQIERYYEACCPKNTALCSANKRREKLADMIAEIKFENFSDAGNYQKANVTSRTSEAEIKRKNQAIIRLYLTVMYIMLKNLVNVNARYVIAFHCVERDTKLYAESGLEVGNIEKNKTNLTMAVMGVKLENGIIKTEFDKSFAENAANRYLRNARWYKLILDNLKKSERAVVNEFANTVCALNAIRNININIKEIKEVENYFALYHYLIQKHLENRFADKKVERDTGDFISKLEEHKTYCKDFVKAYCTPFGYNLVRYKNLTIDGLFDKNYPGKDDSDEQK
Assay: crRNA (strand 1, pre-loaded); Mg2+; 40 mM Tris-HCl pH 7.5, 150 mM NaCl, 6 mM MgCl2, 1 mM DTT, 0.1% Tween-20, 0.2 mg/ml BSA; 25 C; 10 min per concentration, then washed
Conditions: tags: His6-TwinStrep-SUMO cleaved; N-terminal SNAP kept (SNAP-Surface 488); label: 3' end held by stalled T7 RNA polymerase
Please assign not met whenever Kd is at or above 50 nM, and met whenever it is below.

Solved entries (count: 5):
| binder | category |
| --- | --- |
| target 3 G3C,U22A (mixed) RNA 1: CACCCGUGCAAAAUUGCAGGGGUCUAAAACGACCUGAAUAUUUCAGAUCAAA RNA 2: GGGAAUGGAUCCACAUCUACGAAUUCGUUAUUGAUCUGAAAUAUUCAGCUCUGCAGAUCGGAAGAGCACACGU | met |
| target 1 insU 3' of 22,insC 3' of 9 (mixed) RNA 1: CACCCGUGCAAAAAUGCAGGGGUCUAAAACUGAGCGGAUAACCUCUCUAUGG RNA 2: GGGAAUGGAUCCACAUCUACGAAUUCGUACUCAUAGAGAGGUUACUCCGCUCACCGAGAUCGGAAGAGCACACGU | met |
| target 1 insA 3' of 19,insA 3' of 15 (mixed) RNA 1: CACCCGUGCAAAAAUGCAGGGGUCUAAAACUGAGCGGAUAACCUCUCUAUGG RNA 2: GGGAAUGGAUCCACAUCUACGAAUUCGUACCAUAAGAGAAGGUUAUCCGCUCACCGAGAUCGGAAGAGCACACGU | met |
| target 1 insC 3' of 17,insC 3' of 3 (mixed) RNA 1: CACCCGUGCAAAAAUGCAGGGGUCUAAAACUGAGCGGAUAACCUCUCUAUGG RNA 2: GGGAAUGGAUCCACAUCUACGAAUUCGUACCAUAGCAGAGGUUAUCCGCUCCACCGAGAUCGGAAGAGCACACGU | not met |
| target 1 insU 3' of 22,insC 3' of 15 (mixed) RNA 1: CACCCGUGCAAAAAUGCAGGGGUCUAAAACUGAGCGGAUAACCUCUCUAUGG RNA 2: GGGAAUGGAUCCACAUCUACGAAUUCGUACUCAUAGAGCAGGUUAUCCGCUCACCGAGAUCGGAAGAGCACACGU | not met |

Next:
Lab note: Kd threshold 50 nM. Does this binder come in strictly under it? target 1 MT 5'PFS AGA 3'PFS UGU (mixed) RNA 1: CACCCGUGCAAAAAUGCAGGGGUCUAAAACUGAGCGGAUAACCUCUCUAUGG RNA 2: GGGAAUGGAUCCACAUCUACGAAUUCAGACCAUAGAGAGGUUAUCCGCUCAUGUAGAUCGGAAGAGCACACGU
not met
